Assign pKi to each entry below.
- experimental-system: Somatostatin receptor type 2 (Homo sapiens, UniProt P30874)
- Sequence (P30874 whole entry): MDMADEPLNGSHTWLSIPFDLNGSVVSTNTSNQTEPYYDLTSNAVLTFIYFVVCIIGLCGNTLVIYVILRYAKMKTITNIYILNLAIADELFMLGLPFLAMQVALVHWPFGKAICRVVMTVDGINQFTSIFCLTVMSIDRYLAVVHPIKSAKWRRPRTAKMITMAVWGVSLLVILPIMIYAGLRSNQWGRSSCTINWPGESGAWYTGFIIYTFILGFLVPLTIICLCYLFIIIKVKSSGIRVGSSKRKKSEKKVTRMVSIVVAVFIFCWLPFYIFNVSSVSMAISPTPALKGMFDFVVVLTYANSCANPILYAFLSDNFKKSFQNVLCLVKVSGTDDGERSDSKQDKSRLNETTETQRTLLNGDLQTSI
- measurement-notes: Binding affinity towards human Somatostatin receptor type 2 (sst2) using Tyr11-[125I]-SRIF as radioligand was determined in CHO cells
Starred links: 1 amine or outer side, 2 acyl side, 3 side chain; linkers in the order of their positions; H or OH if unused. Positions of bridges follow the written chain, without caps; N, C: chain ends. Non-standard residues stand in square brackets, D forms with d. Residues, ends and D or L forms follow the SMILES beside them. Groups on a side chain read outwards from the residue. *: point of attachment. Ethylenediamine = C(CN[*:2])N[*:1]; Hyp = O=C(O)[C@@H]1C[C@@H](O)CN1; CO = O=C([*:1])[*:2]; Bn = c1ccc(C*)cc1
On this scale, pKi is minus log10 of a concentration expressed in M (mol/L).

Data request: Provide pKi, system Somatostatin receptor type 2 (Homo sapiens, UniProt P30874), entry NCCCC[C@@H]1NC(=O)[C@@H](Cc2c[nH]c3ccccc23)NC(=O)[C@H](Cc2ccccc2)NC(=O)[C@@H]2C[C@@H](O)CN2C(=O)[C@H](Cc2ccccc2)NC(=O)[C@H](Cc2ccc(OCc3ccccc3)cc2)NC1=O (cyclo(F[Hyp]F[dW]KY(Bn)))
Data returned: 9.10

Data request: Provide pKi, system Somatostatin receptor type 2 (Homo sapiens, UniProt P30874), entry C[C@H](N)C(=O)NCC(=O)N[C@H]1CSSC[C@@H](C(N)=O)NC(=O)[C@H](CO)NC(=O)[C@H]([C@@H](C)O)NC(=O)[C@H](Cc2ccccc2)NC(=O)[C@H]([C@@H](C)O)NC(=O)[C@H](CCCCN)NC(=O)[C@H](Cc2c[nH]c3ccccc23)NC(=O)[C@H](Cc2ccccc2)NC(=O)[C@H](Cc2ccccc2)NC(=O)[C@H](C)NC(=O)[C@H](CCCCN)NC1=O (H-AGCKAFFWKTFTSC-NH2; disulfide 3-14)
Data returned: 9.90

Data request: Provide pKi, system Somatostatin receptor type 2 (Homo sapiens, UniProt P30874), entry C[C@H](N)C(=O)NCC(=O)N[C@H]1CSSC[C@@H](C(N)=O)NC(=O)[C@H](CO)NC(=O)[C@H]([C@@H](C)O)NC(=O)[C@H](Cc2ccccc2)NC(=O)[C@H]([C@@H](C)O)NC(=O)[C@H](CCCCN)NC(=O)[C@H](Cc2c[nH]c3ccccc23)NC(=O)[C@H](Cc2ccccc2)NC(=O)[C@H](C)NC(=O)[C@H](CC(N)=O)NC(=O)[C@H](CCCCN)NC1=O (H-AGCKNAFWKTFTSC-NH2; disulfide 3-14)
Data returned: 7.70

Data request: Provide pKi, system Somatostatin receptor type 2 (Homo sapiens, UniProt P30874), entry `NCCCC[C@@H]1NC(=O)[C@@H](Cc2c[nH]c3ccccc23)NC(=O)[C@H](Cc2c[nH]cn2)NC(=O)[C@@H]2C[C@@H](OC(=O)NCCN)CN2C(=O)[C@H](Cc2ccccc2)NC(=O)[C@H](Cc2ccc(OCc3ccccc3)cc2)NC1=O`
Data returned: 9.10

Data request: Provide pKi, system Somatostatin receptor type 2 (Homo sapiens, UniProt P30874), entry NCCCC[C@@H]1NC(=O)[C@@H](Cc2c[nH]c3ccccc23)NC(=O)[C@H](Cc2ccccc2)NC(=O)[C@@H]2C[C@@H](OC(=O)NCCN)CN2C(=O)[C@H](Cc2ccccc2)NC(=O)[C@H](Cc2ccc(OCc3ccccc3)cc2)NC1=O (cyclo(F[Hyp]([CO-Ethylenediamine])F[dW]KY(Bn)))
Data returned: 8.70

====

Assign pKi to each entry below.
- experimental-system: Somatostatin receptor type 5 (Homo sapiens)
- Sequence (P35346 whole entry): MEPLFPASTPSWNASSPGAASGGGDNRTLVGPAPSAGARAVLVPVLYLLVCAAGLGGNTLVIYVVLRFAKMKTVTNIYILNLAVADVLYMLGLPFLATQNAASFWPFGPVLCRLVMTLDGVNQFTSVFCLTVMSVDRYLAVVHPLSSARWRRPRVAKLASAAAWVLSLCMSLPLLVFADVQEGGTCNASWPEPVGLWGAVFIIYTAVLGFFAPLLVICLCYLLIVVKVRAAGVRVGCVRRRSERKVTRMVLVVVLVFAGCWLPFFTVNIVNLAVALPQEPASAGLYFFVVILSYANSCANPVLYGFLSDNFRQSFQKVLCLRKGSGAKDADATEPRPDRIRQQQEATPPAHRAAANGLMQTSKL
- measurement-notes: Binding affinity towards human Somatostatin receptor type 5 (sst5) using Tyr11-[125I]-SRIF as radioligand was determined in COS cell
Starred links: 1 amine or outer side, 2 acyl side, 3 side chain; linkers in the order of their positions; H or OH if unused. Positions of bridges follow the written chain, without caps; N, C: chain ends. Non-standard residues stand in square brackets, D forms with d. Residues, ends and D or L forms follow the SMILES beside them. Groups on a side chain read outwards from the residue. *: point of attachment. Ethylenediamine = C(CN[*:2])N[*:1]; Hyp = O=C(O)[C@@H]1C[C@@H](O)CN1; Phg = N[C@H](C(=O)O)c1ccccc1; CO = O=C([*:1])[*:2]; Bn = c1ccc(C*)cc1
On this scale, pKi is minus log10 of a concentration expressed in M (mol/L).

Data request: Answer with reported pKi of `NCCCC[C@@H]1NC(=O)[C@@H](Cc2c[nH]c3ccccc23)NC(=O)[C@H](Cc2ccc(O)cc2)NC(=O)[C@@H]2C[C@@H](OC(=O)NCCN)CN2C(=O)[C@H](Cc2ccccc2)NC(=O)[C@H](Cc2ccc(OCc3ccccc3)cc2)NC1=O`
Data returned: 9.60

Data request: Answer with reported pKi of `NCCCC[C@@H]1NC(=O)[C@@H](Cc2c[nH]c3ccccc23)NC(=O)[C@H](CCCN=C(N)N)NC(=O)[C@@H]2C[C@@H](OC(=O)NCCN)CN2C(=O)[C@H](Cc2ccccc2)NC(=O)[C@H](Cc2ccc(OCc3ccccc3)cc2)NC1=O`
Data returned: 9.40

Data request: Answer with reported pKi of C[C@H](N)C(=O)NCC(=O)N[C@H]1CSSC[C@@H](C(N)=O)NC(=O)[C@H](CO)NC(=O)[C@H]([C@@H](C)O)NC(=O)[C@H](Cc2ccccc2)NC(=O)[C@H]([C@@H](C)O)NC(=O)[C@H](CCCCN)NC(=O)[C@H](Cc2c[nH]c3ccccc23)NC(=O)[C@H](Cc2ccccc2)NC(=O)[C@H](C)NC(=O)[C@H](CC(N)=O)NC(=O)[C@H](CCCCN)NC1=O (H-AGCKNAFWKTFTSC-NH2; disulfide 3-14)
Data returned: 7.00

Data request: Answer with reported pKi of C[C@H](N)C(=O)NCC(=O)N[C@H]1CSSC[C@@H](C(N)=O)NC(=O)[C@H](CO)NC(=O)[C@H]([C@@H](C)O)NC(=O)[C@H](Cc2ccccc2)NC(=O)[C@H]([C@@H](C)O)NC(=O)[C@H](CCCCN)NC(=O)[C@H](C)NC(=O)[C@H](Cc2ccccc2)NC(=O)[C@H](Cc2ccccc2)NC(=O)[C@H](CC(N)=O)NC(=O)[C@H](CCCCN)NC1=O (H-AGCKNFFAKTFTSC-NH2; disulfide 3-14)
Data returned: 7.10

Data request: Answer with reported pKi of C[C@H](N)C(=O)NCC(=O)N[C@H]1CSSC[C@@H](C(N)=O)NC(=O)[C@H](CO)NC(=O)[C@H]([C@@H](C)O)NC(=O)[C@H](Cc2ccccc2)NC(=O)[C@H]([C@@H](C)O)NC(=O)[C@H](C)NC(=O)[C@H](Cc2c[nH]c3ccccc23)NC(=O)[C@H](Cc2ccccc2)NC(=O)[C@H](Cc2ccccc2)NC(=O)[C@H](CC(N)=O)NC(=O)[C@H](CCCCN)NC1=O (H-AGCKNFFWATFTSC-NH2; disulfide 3-14)
Data returned: 7.00

Data request: Answer with reported pKi of NCCCC[C@@H]1NC(=O)[C@@H](Cc2c[nH]c3ccccc23)NC(=O)[C@H](c2ccccc2)NC(=O)[C@@H]2C[C@@H](OC(=O)NCCN)CN2C(=O)[C@H](Cc2ccccc2)NC(=O)[C@H](Cc2ccc(OCc3ccccc3)cc2)NC1=O [PASIREOTIDE] (cyclo(F[Hyp]([CO-Ethylenediamine])[Phg][dW]KY(Bn)))
Data returned: 9.90

Data request: Answer with reported pKi of CC(C)[C@@H]1NC(=O)[C@H](CCCCN)NC(=O)[C@@H](Cc2c[nH]c3ccccc23)NC(=O)[C@H](Cc2ccc(O)cc2)NC(=O)[C@H](C)N(C)C(=O)[C@H](Cc2ccccc2)NC1=O [SEGLITIDE]
Data returned: 7.90

Data request: Answer with reported pKi of C[C@H](N)C(=O)N[C@@H](C)C(=O)N[C@H]1CSSC[C@@H](C(N)=O)NC(=O)[C@H](CO)NC(=O)[C@H]([C@@H](C)O)NC(=O)[C@H](Cc2ccccc2)NC(=O)[C@H]([C@@H](C)O)NC(=O)[C@H](CCCCN)NC(=O)[C@H](Cc2c[nH]c3ccccc23)NC(=O)[C@H](Cc2ccccc2)NC(=O)[C@H](Cc2ccccc2)NC(=O)[C@H](CC(N)=O)NC(=O)[C@H](CCCCN)NC1=O (H-AACKNFFWKTFTSC-NH2; disulfide 3-14)
Data returned: 8.90

Data request: Answer with reported pKi of `NCCCC[C@@H]1NC(=O)[C@@H](Cc2c[nH]c3ccccc23)NC(=O)[C@H](Cc2c[nH]cn2)NC(=O)[C@@H]2C[C@@H](OC(=O)NCCN)CN2C(=O)[C@H](Cc2ccccc2)NC(=O)[C@H](Cc2ccc(OCc3ccccc3)cc2)NC1=O`
Data returned: 8.50

Data request: Answer with reported pKi of C[C@H](N)C(=O)NCC(=O)N[C@H]1CSSC[C@@H](C(N)=O)NC(=O)[C@H](CO)NC(=O)[C@H]([C@@H](C)O)NC(=O)[C@H](C)NC(=O)[C@H]([C@@H](C)O)NC(=O)[C@H](CCCCN)NC(=O)[C@H](Cc2c[nH]c3ccccc23)NC(=O)[C@H](Cc2ccccc2)NC(=O)[C@H](Cc2ccccc2)NC(=O)[C@H](CC(N)=O)NC(=O)[C@H](CCCCN)NC1=O (H-AGCKNFFWKTATSC-NH2; disulfide 3-14)
Data returned: 8.20

Data request: Answer with reported pKi of NCCCC[C@@H]1NC(=O)[C@@H](Cc2c[nH]c3ccccc23)NC(=O)[C@H](Cc2ccccc2)NC(=O)[C@@H]2C[C@@H](OC(=O)NCCN)CN2C(=O)[C@H](Cc2ccccc2)NC(=O)[C@H](Cc2ccc(OCc3ccccc3)cc2)NC1=O (cyclo(F[Hyp]([CO-Ethylenediamine])F[dW]KY(Bn)))
Data returned: 9.40
